Each entry below carries its reported MIC.
Test system: Candida parapsilosis ATCC 22019, CCM 8260
assay.method.text: Antifungal microdilution broth method (EUCAST)
Type: cell-based
reported.conditions: Lodderomyces parapsilosis, 24 h, read-out: MIC CP
observable: MIC

1. CCCCCCNc1cnc(C(=O)Nc2ccc(CC)cc2)cn1 [Compound 5d]    > 125 µM
2. CCCCCCCNc1cnc(C(=O)Nc2ccc(O)cc2)cn1 [Compound 3e]    > 250 µM
3. CCCCCCCCNc1cnc(C(=O)Nc2cccc(O)c2)cn1 [Compound 2f]    > 125 µM
4. CCCCCNc1cnc(C(=O)Nc2cccc(C(F)(F)F)c2)cn1 [Compound 1c]    125 µM
5. CCCNc1cnc(C(=O)Nc2ccc(CC)cc2)cn1 [Compound 5a]    > 125 µM
6. CCCCCCNc1cnc(C(=O)Nc2cccc(C(F)(F)F)c2)cn1 [Compound 1d]    > 500 µM
7. CCCNc1cnc(C(=O)Nc2ccc(O)cc2)cn1 [Compound 3a]    > 500 µM
8. CCCCCCCNc1cnc(C(=O)Nc2ccc(C)cc2)cn1 [Compound 4e]    > 125 µM
9. CCCNc1cnc(C(=O)Nc2cccc(O)c2)cn1 [Compound 2a]    > 125 µM
10. CCCCNc1cnc(C(=O)Nc2cccc(C(F)(F)F)c2)cn1 [Compound 1b]    > 125 µM
